These measurements were taken from ChEMBL document CHEMBL4513216.

# Tested on: Plasmodium berghei
# method: Screen against P. berghei liver stage (PbLuc), transformed with Luciferase, at 10uM
# Assay type: functional, HepG2
# condition-info: tested at 10 uM
The campaign covered roughly 69,000 compounds. About 8,600 (12%) showed an effect of 50% or more. Only a selection was taken, and strong results are over-represented in it overall.
Below is a list of entries, each paired with its recorded INHIBITION value.
measured-metric: INHIBITION (%)

> print(dat)
                                    compound  measured.metric  quantitative.readout
 1        O=C(NC1CC1)c1ccccc1NCc1cn2cccnc2n1       INHIBITION                   -17
 2                    CNCc1cnc(Nc2ccccc2)nc1       INHIBITION                  39.9
 3          Cc1nn(C(C)C)c(C)c1NC(=O)c1ccncc1       INHIBITION                  26.8
 4  CC(=O)N1CCCC2(CCC(=O)N2Cc2cccnc2)C1 (configuration not stated)       INHIBITION                  6.27
 5  CN1CCC(NC(=O)c2cc(F)cc(Cl)c2O)C1=O (configuration not stated)       INHIBITION                  26.5
 6    CN1CCN(C(=O)c2cc[nH]c(=O)c2)Cc2ccccc21       INHIBITION                    20
 7  CCOc1ncccc1NC(=O)N1CCOCC1C (configuration not stated)       INHIBITION                  52.2
 8  COc1cccc(CC(C)NC(=O)NC(C)C)c1 (configuration not stated)       INHIBITION                  30.3
 9  Cc1ccc(S(=O)(=O)N2CCC(Cn3cc(C(C)(C)N)nn3)CC2)s1       INHIBITION                  61.8
10  Cc1nc(C)n(C2CCCN(C(=O)c3cc(C4CC4)on3)C2)n1 (configuration not stated)       INHIBITION                  29.2
11  Cc1noc([C@@]23CCO[C@@H]2CCN(C(=O)c2sccc2C)C3)n1       INHIBITION                 -4.56
12  O=C(c1cnccn1)N1CC[C@@H]2CO[C@@H](CN3CCCC3)[C@@H]2C1       INHIBITION                  37.8
13  COCC(=O)NC(C)Cc1cccc(OC)c1 (configuration not stated)       INHIBITION                  15.5
14  Cc1cccc(CN2CC3(CCN(Cc4ccco4)CC3)OCC2=O)n1       INHIBITION                 -16.2
15  CN1CC(=O)N(c2ccsc2)CC12CCN(S(C)(=O)=O)C2 (configuration not stated)       INHIBITION                 -12.2
16  COc1cccc(C(CO)NC(=O)NC(C)C)c1 (configuration not stated)       INHIBITION                  91.1
17   CCOc1ncccc1NC(=O)N1CCN(c2cccc(C)c2C)CC1       INHIBITION                  90.4
18  Cc1cc(NC(=O)CN2CCN(c3nccs3)C(C)C2)no1 (configuration not stated)       INHIBITION                  19.2
19      COC(=O)NCC(=O)N1CCc2cc(Cl)cc(Cl)c2C1       INHIBITION                 -10.9
20      Cc1nn(C)c2ncc(C(=O)N3CCNC(=O)C3)cc12       INHIBITION                  1.86
21  Cc1noc([C@@]23CCO[C@@H]2CCN(C(=O)c2cc(C)on2)C3)n1       INHIBITION                  61.9
22  O=C(NCc1cccs1)C1CNCC12CCOCC2 (configuration not stated)       INHIBITION                 -30.1
23  C[C@@H]1CN(Cc2nc(Cc3ccccc3F)no2)C[C@H](C)O1       INHIBITION                  3.93
24    CCOc1ncccc1NC(=O)N1CCN(c2ccc(O)cc2)CC1       INHIBITION                -5.845
25     CN(CCOc1ccc(F)cc1)S(=O)(=O)c1cnn(C)c1       INHIBITION                  21.2
26       CCC(CC)C(=O)N(C)CC(=O)Nc1ccc(Br)cn1       INHIBITION                  21.5
27  Cc1ncsc1CN1CCN(C2CCOCC2)CC(C(N)=O)C1 (configuration not stated)       INHIBITION                  25.6
28  CNC(=O)c1cn[nH]c1C1(C)CCCN(Cc2nccn2C(C)C)C1 (configuration not stated)       INHIBITION                    46
29      O=c1cc2c(nn1CN1CCN(c3ccccc3)CC1)CCC2       INHIBITION                  16.6
30  COc1ccc(C(CO)NC(=O)Nc2cccc(C(C)=O)c2)cc1 (configuration not stated)       INHIBITION                 -6.51
31     O=C(NN1CCCc2ccccc21)c1c[nH]c(=O)[nH]1       INHIBITION                  32.3
32  Cc1noc([C@H]2C[C@H]3OCC[C@H]3N(S(C)(=O)=O)C2)n1       INHIBITION                 -31.3
33  Cc1cnn(CC2CCCN2C(=O)c2cc(O)nc3ccccc23)c1 (configuration not stated)       INHIBITION                 -29.8
34                O=c1cc2c(nn1CN1CCOCC1)CCC2       INHIBITION                 -1.58
35  CC(C)CCN1CC2(CCCN(C(=O)CNC(=O)N(C)C)C2)CCC1=O (configuration not stated)       INHIBITION                  19.4
36     N#Cc1c(F)cccc1N1CCN(C(=O)Nc2nncs2)CC1       INHIBITION                 -7.53
37  O=C(NCc1cccs1)[C@@H]1CC[C@@H]2[C@@H](CCN2CC2CCC2)O1       INHIBITION                  30.3
38  Nc1ncnc2c1ncn2[C@H]1CCN(Cc2ccsc2)CC[C@@H]1O       INHIBITION                  17.4
39  Cc1nc(N2CCOCC2)ncc1-c1cc(O)nc(N2CCCC2)n1       INHIBITION                 -27.1
40  Cc1noc([C@@]23CCO[C@@H]2CCN(C(=O)c2ccsc2)C3)n1       INHIBITION                 -15.3
41  CC(C)c1nnc(NC(=O)N(C)Cc2ccc(C(N)=O)cc2)s1       INHIBITION                  22.5
42  Cc1cc(C)n(CC2CCCN2C(=O)c2ccnc(N(C)C)c2)n1 (configuration not stated)       INHIBITION                  3.73
43  O=C(N1CCCC1)N1CCOCC2(C1)CN(c1ccccc1)C(=O)CO2 (configuration not stated)       INHIBITION                 -1.36
44  CNC(=O)CS(=O)(=O)C1CCN(S(=O)(=O)c2cccc(Cl)c2C)CC1       INHIBITION                    80
45  Cc1n[nH]c(C)c1NC(=O)CN1CCc2c(nc(C(C)C)n2C)C1       INHIBITION                 -2.48
46  Cc1ncsc1CN1CC[C@H](O)[C@@H](n2cnc3c(N)ncnc32)CC1       INHIBITION                  50.1
47    COCCCS(=O)(=O)N(Cc1cccc(C)c1)Cc1ccccn1       INHIBITION                  4.13
